- protocolDescription: inhibitors of CD8+ T cell–vesicle binding, dose response, mouse 2C CD8+ T cells, flow cytometry (AID 485284);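 also: drosophila derived vesicles carrying Ld MHC with QL9 peptide plus B7-1 and ICAM-1; vesicle binding seen as anti-B7-1 PE fluorescence on CD8 gated cells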
- assayConditions: 2C mouse CD8+ T cell-exosome binding; at 45 µM (top of the series)
Measured potencies and affinities stand elsewhere.
Kindly state binding remaining, % of control for each of the entries shown.
One number for each entry, in %.

• NC(=O)CCS(=O)(=O)CCN1CCN(S(=O)(=O)c2ccc3c(c2)CCC3)CC1 = 170

Would you mind listing binding remaining, % of control for each of the following compounds?
1. Cc1ccccc1C(=O)N1CCC(C(=O)Nc2ccc(C)c(S(=O)(=O)N3CCCCC3)c2)CC1
2. CCOc1ccc(NC(=O)CN(C)C(=O)C2CC(=O)N(Cc3ccco3)C2)cc1OCC (stereo not given)
3. O=C(c1ccc(N2C(=O)C3CC=C(Cl)CC3C2=O)cc1)N1CCCCC1 (stereo not given)

stdout:
1: 134; 2: 145; 3: 18.5

Record binding remaining, % of control per entry; entries follow.
1. Cc1ccc(C(C)n2cc(C(=O)NCCN3CCN(C)CC3)nn2)cc1 (stereo not given)
2. CCOc1ccc(S(=O)(=O)N2CCC(C(=O)Nc3cc(S(C)(=O)=O)ccc3Cl)CC2)cc1

stdout:
1: 144; 2: 106

Dear colleague, could you send me binding remaining, % of control for each of the items below? Thanks.
1. CS(=O)(=O)NCc1ccccc1Br
2. Cc1cc(S(=O)(=O)N2CCN(Cc3ccccc3)CC2)c(C)s1

stdout:
95.9
94.5

Parameters: items (list). Returns: binding remaining, % of control for each item.
1. CCCCN1C(=O)NC(NC(=O)C2CC2)(C(F)(F)F)C1=O (stereo not given)
2. CCN1CCN(c2ccc(NC(=O)c3cc4ccccc4cc3OC)cc2C)CC1

stdout:
1. 136
2. 128

====

For each record, write down the corresponding binding remaining, % of control.
- protocolDescription: inhibitors of CD8+ T cell–vesicle binding, dose response, mouse 2C CD8+ T cells, flow cytometry (AID 485284)
- assayConditions: 2C mouse CD8+ T cell-exosome binding; at 45 µM (top of the series)
Measured potencies and affinities stand elsewhere.
Give bare numbers, in %.

* CSc1cccc(NC(=O)CCCn2c(=O)c3cccn3c3cccnc32)c1 | 87.5
* CSCCC(NC(=O)c1ccc(=O)n(C)n1)c1nc2ccccc2[nH]1 (stereo unspecified) | 149
* CS(=O)(=O)c1cccc(-c2csc(N3CCC(C(N)=O)CC3)n2)c1 | 150
* O=C(Nn1cnc2ccccc2c1=O)C1CCCCC1 | 106
* Cc1ccc(C)c(-n2c3nc(=O)[nH]c(=O)c-3cc3cc([N+](=O)[O-])ccc32)c1 | 133
* CCOC(=O)c1sc(NC(=O)C2CC(=O)N(c3ccccc3OC)C2)nc1C (stereo unspecified) | 141
* NC(=O)NC(=O)COC(=O)CN1C(=O)C2CCCCC2C1=O (stereo unspecified) | 164
* CCOC(=O)C1CCN(C(=O)c2ccc(NC(=O)C3CCCO3)cc2)CC1 (stereo unspecified) | 218

Batch: binding remaining, % of control for all items listed.
1. O=C(NC(=S)NCc1ccco1)c1ccc(Br)cc1
2. CC1CCN(S(=O)(=O)Cc2ccccc2Cl)CC1
3. CCOC(=O)CSc1nnnn1-c1cc(OC)c(Cl)cc1OC

stdout:
[136, 118, 136]

====

- protocolDescription: inhibitors of CD8+ T cell–vesicle binding, dose response, mouse 2C CD8+ T cells, flow cytometry (AID 485284);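 also: drosophila derived vesicles carrying Ld MHC with QL9 peptide plus B7-1 and ICAM-1; vesicle binding seen as anti-B7-1 PE fluorescence on CD8 gated cells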
- assayConditions: 2C mouse CD8+ T cell-exosome binding; at 45 µM (top of the series)
Results with a measured potency or affinity are listed apart.
Rule: measured binding remaining, % of control below 80% gets Y; anything equal to or greater than 80% gets N.

Known results for compounds:
- CCCCN(C(=O)CCCc1nc2ccccc2s1)c1c(N)n(CC(C)C)c(=O)[nH]c1=O: N
- Cc1ccc(NC(=O)COC(=O)CCc2c[nH]c3ccccc23)c(C)c1: N
- Cc1c(C(=O)N(C)Cc2ccccc2)oc2ccc(S(=O)(=O)N3CCCC3)cc12: N
- COc1ccccc1N1CCN(C(=O)C2CCCN(S(=O)(=O)c3ccc(C)cc3)C2)CC1 (stereo not drawn): N

stdin: Regarding "O=C(CN1C(=O)NC2(CCCCCC2)C1=O)N1CCN(c2ccc(F)cc2)CC1" , kindly confirm whether its binding remaining, % of control is beneath 80%.
stdout: N

stdin: Is binding remaining, % of control of "CC(C)(C)NC(=O)COc1ccc(CNCc2cccnc2)cc1" strictly below 80%?
stdout: N

stdin: For "Cc1cc(C)n(C(=O)c2sc3cc(F)ccc3c2Cl)n1" , is the recorded binding remaining, % of control below the cut-off of 80%?
stdout: N

stdin: Input "CC(C)(C)OC(=O)NCc1ccc(CNC(=O)c2nc[nH]c2C(=O)NCc2ccccc2)cc1" ; condition: binding remaining, % of control strictly below 80%. Does it hold?
stdout: N

stdin: Input "O=C(Cc1ccc(S(=O)(=O)N2CCOCC2)s1)Nc1ccc(S(=O)(=O)N2CCCCC2)cc1" ; condition: binding remaining, % of control strictly below 80%. Does it hold?
stdout: Y

stdin: hey, is binding remaining, % of control for COc1ccc(C(O)c2coc3ccc(O)c(CN(C)C)c23)cc1 (stereo not drawn) lower than 80% or not?
stdout: N

====

So I've got a bunch of compounds here, and I need their binding remaining, % of control values.
- protocolDescription: inhibitors of CD8+ T cell–vesicle binding, dose response, mouse 2C CD8+ T cells, flow cytometry (AID 485284);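 also: drosophila derived vesicles carrying Ld MHC with QL9 peptide plus B7-1 and ICAM-1; vesicle binding seen as anti-B7-1 PE fluorescence on CD8 gated cells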
- assayConditions: 2C mouse CD8+ T cell-exosome binding; at 45 µM (top of the series)
Measured potencies and affinities stand elsewhere.
Answers are plain numbers, in %.

• COc1ccc(C(=O)NNC(=O)CSc2nnnn2C)cc1 = 181

Give binding remaining, % of control for each listed item.
1. Cn1c(=O)c2cc(S(=O)(=O)NCCC(=O)NC3CCCCCC3)ccc2n(C)c1=O
2. CC1CCCN(CC(=O)NC(=O)NC2CCCCC2)C1 (stereo unspecified)
3. O=C(OCC(=O)N1CCN(C(=O)c2ccco2)CC1)c1ccccc1Cc1ccccc1
4. CC(C)(C)Nc1nc2nonc2nc1NC(C)(C)C
5. COc1ccc(CN2C(=O)C(C)Nc3ncnc(N4CCN(c5ccccn5)CC4)c32)cc1 (stereo unspecified)
6. COc1ccc(S(=O)(=O)N2CCCC2C(=O)Nc2ccc(C(C)=O)cc2)cc1 (stereo unspecified)

stdout:
1. 83.7
2. 109
3. 73
4. 147
5. 22
6. 91.8

Batch of 8 compounds: report binding remaining, % of control for each.
1. Cc1cccc(NC(=O)CN2C(=O)N/C(=C\c3ccc(N4CCOCC4)cc3)C2=O)c1
2. Cc1cccc(N(C(=O)c2snc(C(N)=O)c2N)C(C(=O)NCC2CCCO2)c2ccc(N(C)C)cc2)c1C (stereo unspecified)
3. O=C(Nc1ncc([N+](=O)[O-])s1)c1cccs1
4. Cc1cnc(C(=O)Nc2ccc(C)c(S(=O)(=O)N3CCCCC3)c2)cn1
5. COc1cccc(NC(=O)Nc2ccc3nc(C)c(C)nc3c2)c1
6. COc1ccc(NC(=O)C2CCC(C(C)(C)C)CC2)cc1S(=O)(=O)N1CCCCC1 (stereo unspecified)
7. Cc1ccc(C(C)C)c(OCC(=O)N2CCN(c3ncccn3)CC2)c1
8. Cc1c(NS(=O)(=O)CC23CCC(CC2=O)C3(C)C)c(=O)n(-c2ccccc2)n1C (stereo unspecified)

stdout:
1: 142; 2: 22.8; 3: 56.8; 4: 114; 5: 129; 6: 97.1; 7: 17.4; 8: 21

Okay, here is my list. What is binding remaining, % of control for each of these?
1. CCOc1ccc(CCNC(=O)CCS(=O)(=O)c2ccc(C)cc2)cc1OCC
2. COc1ccc([C@H]2CC(=O)C=C(c3cc(F)ccc3OC)C2)cc1
3. COc1ccc2c(c1)-c1c(sn(-c3ccc(OC)c(OC)c3)c1=S)C(C)(C)N2

stdout:
1. 94
2. 109
3. 116

Below is a list of compounds. For each, state its recorded binding remaining, % of control.
1. COC(=O)c1ccc(OC(=O)CS(=O)c2ccccc2[N+](=O)[O-])cc1 (stereo unspecified)
2. CCOC(=O)N1CCN(Cc2nc(-c3ccc(C)cc3)no2)CC1

stdout:
1: 97.9; 2: 78.4

stdin: Which binding remaining, % of control value belongs to CCCNC(=O)NC(=O)CN1C(=O)NC(C)(c2ccc(C)cc2)C1=O (stereo unspecified) ?
stdout: 160

====

- protocolDescription: inhibitors of CD8+ T cell–vesicle binding, dose response, mouse 2C CD8+ T cells, flow cytometry (AID 485284);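 also: drosophila derived vesicles carrying Ld MHC with QL9 peptide plus B7-1 and ICAM-1; vesicle binding seen as anti-B7-1 PE fluorescence on CD8 gated cells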
- assayConditions: 2C mouse CD8+ T cell-exosome binding; at 45 µM (top of the series)
Potency and affinity values are given separately.
Please provide measured binding remaining, % of control for the entries that follow.
Numbers only, in %.

• COc1ccc(NC(=O)CN2CCN(S(=O)(=O)c3ccc(Cl)cc3)CC2)cc1 = 79.2
• O=C(Cn1cc2c(n1)CCCC2)NCc1ccccn1 = 106
• CCOC(=O)c1c(N2C(=O)CC(Sc3ccccc3C(=O)O)C2=O)sc2c1CCCC2 (stereo unspecified) = 41.4

Your task in this section: give binding remaining, % of control for each listed record.
1. Cc1ccc(S(=O)(=O)Nc2c3ccccc3nc(=O)n2-c2ccccc2)cc1
2. O=C(COC(=O)c1ccc(S(=O)(=O)N2CCOCC2)cc1)Nc1ccccc1OC(F)F
3. O=S(=O)(c1ccc(F)cc1)N1CCC(O)(c2ccc3c(c2)OCO3)CC1
4. O=C(NNC(=S)NC(=O)c1ccco1)c1ccc(F)cc1
5. CNCc1cn2cc(Cl)ccc2n1
6. c1ccc(COc2ccc(OCCN3CCCCC3)cc2)cc1
7. COc1cc(CNCc2cccnc2)ccc1OCC(=O)NC1CCCCC1
8. Cc1c(C)c2c(OCC(=O)NCC(O)c3ccccc3)cc3c(c2oc1=O)CCC(C)(C)O3 (stereo unspecified)

stdout:
[71.8, 20.5, 108, 159, 125, 112, 128, 72.4]
